Parameter: ALP. Scope: all listed entries.
Species on record: Rattus norvegicus
Test Details: Open TG-GATES - Regimen: Daily Repeat
Assay type: toxicity, organism-based, Sprague-Dawley
Parameters: regimen Daily Repeat, gender Male, age 6 weeks
Run Conditions: in vivo, po, 0 mg/kg, […], tissue Plasma, route gavage, dose level Control, time 14 day
Metric: ALP

{"Molecule": "O=C(N[C@H](CO)[C@H](O)c1ccc([N+](=O)[O-])cc1)C(Cl)Cl", "Value Reported": "1466.2 IU/L"}
{"Molecule": "CCN1CCCC1CNC(=O)c1cc(S(N)(=O)=O)ccc1OC (stereo unspecified) [SULPIRIDE]", "Value Reported": "1582.6 IU/L"}
{"Molecule": "C#C[C@]1(O)CC[C@H]2[C@@H]3CCc4cc(O)ccc4[C@H]3CC[C@@]21C", "Value Reported": "1586.6 IU/L"}
{"Molecule": "Nc1nc(N)c2nc(-c3ccccc3)c(N)nc2n1", "Value Reported": "1497.6 IU/L"}
{"Molecule": "CC(=N)S [THIOACETAMIDE]", "Value Reported": "716 IU/L"}
{"Molecule": "CC(=O)Oc1cc(C(C)C)c(OCCN(C)C)cc1C", "Value Reported": "1709.2 IU/L"}
{"Molecule": "CC(C)C(=O)Nc1ccc([N+](=O)[O-])c(C(F)(F)F)c1 [FLUTAMIDE]", "Value Reported": "842.2 IU/L"}
{"Molecule": "CC(C)(S)[C@@H](N)C(=O)O", "Value Reported": "1246.2 IU/L"}
{"Molecule": "O=C(O)c1cccnc1", "Value Reported": "1595.6 IU/L"}
{"Molecule": "CCSCC[C@H](N)C(=O)O", "Value Reported": "742.4 IU/L"}
{"Molecule": "C[C@](N)(Cc1ccc(O)c(O)c1)C(=O)O", "Value Reported": "1553 IU/L"}
{"Molecule": "CN1C(=O)OC(C)(C)C1=O", "Value Reported": "1703.8 IU/L"}
{"Molecule": "Oc1ncnc2[nH]ncc12", "Value Reported": "710.4 IU/L"}
{"Molecule": "C[C@]12CCC(=O)C=C1CC[C@@H]1[C@@H]2CC[C@@]2(C)[C@H]1CC[C@]2(C)O", "Value Reported": "1238.8 IU/L"}
{"Molecule": "CCc1oc2ccccc2c1C(=O)c1cc(I)c(O)c(I)c1", "Value Reported": "789.8 IU/L"}
{"Molecule": "CCC(C)(C)C(=O)O[C@H]1C[C@@H](C)C=C2C=C[C@H](C)[C@H](CC[C@@H]3C[C@@H](O)CC(=O)O3)[C@H]21", "Value Reported": "777.2 IU/L"}

----------
Organism: Rattus norvegicus
Test Details: Open TG-GATES - Regimen: Single
Format: toxicity, organism-based, Sprague-Dawley
Design: regimen Single, gender Male, age 6 weeks
Run Conditions: in vivo, po, 0 mg/kg, 24 h, tissue Plasma, route gavage, dose level Control

{"Molecule": "O=C(O)c1cccnc1 [NIACIN]", "Unit Symbol": "mg/dL", "DBIL": 0}
{"Molecule": "CC(C)C(=O)Nc1ccc([N+](=O)[O-])c(C(F)(F)F)c1 [FLUTAMIDE]", "Unit Symbol": "mg/dL", "DBIL": 0.084}
{"Molecule": "CN1C(=O)OC(C)(C)C1=O [TRIMETHADIONE]", "Unit Symbol": "mg/dL", "DBIL": 0.01}
{"Molecule": "CCC(C)(C)C(=O)O[C@H]1C[C@@H](C)C=C2C=C[C@H](C)[C@H](CC[C@@H]3C[C@@H](O)CC(=O)O3)[C@H]21 [SIMVASTATIN]", "Unit Symbol": "mg/dL", "DBIL": 0.05}
{"Molecule": "C#C[C@]1(O)CC[C@H]2[C@@H]3CCc4cc(O)ccc4[C@H]3CC[C@@]21C [ETHINYL ESTRADIOL]", "Unit Symbol": "mg/dL", "DBIL": 0.01}
